Tested Target: Voltage-gated inwardly rectifying potassium channel KCNH2 (Homo sapiens, UniProt Q12809)
Sequence (Q12809 whole entry): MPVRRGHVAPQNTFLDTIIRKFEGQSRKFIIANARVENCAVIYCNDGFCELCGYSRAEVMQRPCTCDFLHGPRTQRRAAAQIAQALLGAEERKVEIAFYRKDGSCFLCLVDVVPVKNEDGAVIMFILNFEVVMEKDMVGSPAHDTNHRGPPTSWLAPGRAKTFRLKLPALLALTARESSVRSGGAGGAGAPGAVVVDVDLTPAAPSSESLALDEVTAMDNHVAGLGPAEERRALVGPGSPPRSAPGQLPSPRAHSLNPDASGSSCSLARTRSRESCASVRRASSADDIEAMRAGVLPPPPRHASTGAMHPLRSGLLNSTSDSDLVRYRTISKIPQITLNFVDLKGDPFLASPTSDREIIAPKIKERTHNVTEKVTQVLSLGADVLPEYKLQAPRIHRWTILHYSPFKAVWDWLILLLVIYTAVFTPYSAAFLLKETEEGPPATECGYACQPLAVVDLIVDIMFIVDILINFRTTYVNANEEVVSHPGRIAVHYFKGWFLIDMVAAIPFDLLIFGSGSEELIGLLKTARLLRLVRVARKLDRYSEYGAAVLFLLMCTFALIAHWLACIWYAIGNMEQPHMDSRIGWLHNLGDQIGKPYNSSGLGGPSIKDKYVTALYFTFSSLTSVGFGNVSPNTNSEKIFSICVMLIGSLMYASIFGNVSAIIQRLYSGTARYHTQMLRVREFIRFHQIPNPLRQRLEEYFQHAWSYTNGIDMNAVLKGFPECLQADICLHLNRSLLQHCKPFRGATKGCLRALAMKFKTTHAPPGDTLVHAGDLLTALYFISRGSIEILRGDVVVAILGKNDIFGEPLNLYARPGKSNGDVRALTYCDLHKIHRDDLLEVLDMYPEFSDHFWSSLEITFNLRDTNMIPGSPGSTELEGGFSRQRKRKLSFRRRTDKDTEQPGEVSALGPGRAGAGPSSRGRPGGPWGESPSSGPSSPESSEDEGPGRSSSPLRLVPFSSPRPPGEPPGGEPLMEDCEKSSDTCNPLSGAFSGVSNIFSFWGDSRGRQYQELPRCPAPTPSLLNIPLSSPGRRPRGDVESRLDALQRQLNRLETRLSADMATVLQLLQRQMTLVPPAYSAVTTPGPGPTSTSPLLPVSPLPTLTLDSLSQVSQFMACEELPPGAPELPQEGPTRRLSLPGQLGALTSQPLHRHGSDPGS
Assay Comment: Displacement of [3H]-MK499 from human ERG IKr channel expressed in HEK293 cell membranes
Parameter Measured: pIC50
Recall that pIC50 is obtained by taking minus log10 of the concentration measured in molar.

Before answering, review these 2 worked examples.
- Compound: "Fc1ccc(CC(c2cccnc2)c2cccnc2)c(-c2cccc(C(F)(F)F)c2)c1"
  pIC50: 5.65
- Compound: "N#Cc1cccc(-c2cccc(Cl)c2CC(c2cccnc2)c2cccnc2)c1"
  pIC50: 5.59

Please look at the following compound next.
Input line: Would you mind telling me what pIC50 value was observed for Nc1cccc(C(Cc2cccnc2-c2cc(Cl)cc(Cl)c2)c2cccnc2)n1 (stereo not given) ?
Output line: 4.99

###

Tested Target: KCNQ1/KCNE1 (IKs) (Homo sapiens, UniProt P15382+P51787)
Assay Comment: Inhibition of human KCNQ1/KCNE1 expressed in HEK293 cells assessed as reduction in slowly activating delayed rectifier cardiac potassium current at 10 uM by patch clamp electrophysiology method
Format: cell-based
Condition Label: HEK293 cells expressing human KCNQ1/KCNE1
inhibition at 10 µM vs 20%: at or above is fulfilled, below is not fulfilled.

Input line: Reported inhibition at 10 µM reaches at least 20% for CN(C)C(=O)c1cccc(-c2ncccc2CC(c2ccnc(N)n2)c2cccnc2F)c1 (racemic) ?
Output line: fulfilled

Input line: And for c1cncc(-c2ccccc2CC(c2cccnc2)c2cccnc2)c1 ?
Output line: fulfilled

Input line: Next compound up: CC(=O)NC(c1ccccc1-c1cc(Cl)cc(Cl)c1)C(c1cccnc1)c1cccnc1 (stereo not given)
Output line: not fulfilled

Input line: Can you check N#Cc1cccc(-c2cc(F)ccc2CC(c2cccnc2)c2cccnc2)c1 next?
Output line: fulfilled

Input line: Another compound: OC(Cc1cccnc1-c1cc(Cl)cc(Cl)c1)(c1cccnc1)c1cccnc1
Output line: not fulfilled

###

Assay Comment: Terminal half-life in rat
Type: ADME
Condition Label: in vivo, read-out: beta t1/2 (converted)
Parameter Measured: half-life

Input line: // returns reported half-life for input O[C@@H](c1cccnc1-c1cc(Cl)cc(Cl)c1)C(c1cccnc1)c1cccnc1
Output line: 1.6 h

###

Assay Comment: Clearance in dog
Assay type: ADME, Canis lupus familiaris
Condition Label: in vivo
Parameter Measured: clearance (mL/min/kg)
Just the number in mL/min/kg, nothing appended.

Input line: Which clearance is reported for this compound? O[C@@H](c1cccnc1-c1cc(Cl)cc(Cl)c1)C(c1cccnc1)c1cccnc1
Output line: 3.7

###

Tested Target: KCNQ1/KCNE1 (IKs) (Homo sapiens, UniProt P15382+P51787)
Assay Comment: Inhibition of human KCNQ1/KCNE1 expressed in HEK293 cells assessed as reduction in slowly activating delayed rectifier cardiac potassium current at 30 uM by patch clamp electrophysiology method
Assay type: cell-based
Condition Label: HEK293 cells expressing human KCNQ1/KCNE1
Parameter Measured: inhibition at 30 µM (%)
State just the number; it will be interpreted in %.

Input line: Entry O[C@@H](c1cccnc1-c1cc(Cl)cc(Cl)c1)C(c1cccnc1)c1cccnc1 , system KCNQ1/KCNE1 (IKs) (Homo sapiens, UniProt P15382+P51787): what inhibition at 30 µM was measured?
Output line: 7

###

Assay Comment: Volume of distribution at steady state in rat
Type: ADME
Condition Label: in vivo, read-out: Vdss
Parameter Measured: Vd (L/kg)
Express your answer in L/kg, writing the number without its unit.

Input line: Endpoint output: Vd of O[C@@H](c1cccnc1-c1cc(Cl)cc(Cl)c1)C(c1cccnc1)c1cccnc1 . Value?
Output line: 1.59

Value source: ChEMBL document CHEMBL4002640
